test system: RPMI-8226; assay: Cytotoxic activity, cell count (24 h); format: cell-based; settings: Homo sapiens; RPMI-8226 (myeloma), 24 h; read-out: Cell count (24 h) IC50
RESULT TYPE: IC50 (µM)

{"MOLECULE": "C[S+]([O-])CCCCN=C=S (stereo not shown) [GRA, sulphorafane, reference compound]", "NUMERIC VALUE": 8}

----------
system: HCT116 p53+/+; experiment: Cytotoxic activity, cell count (24 h); format: cell-based; settings: Homo sapiens, HCT-116; HCT116 p53+/+, 24 h; read-out: Cell count (24 h) IC50
pIC50: −log10 of the molar value.
RESULT TYPE: pIC50

{"MOLECULE": "C[S+]([O-])CCCCN=C=S (stereo not shown) [GRA, sulphorafane, reference compound]", "TESTED TARGET": "HCT116 p53+/+", "NUMERIC VALUE": 4.77}

----------
Test system: RPMI-8226
Assay: Cytotoxic activity, cell count (24 h)
Type: cell-based
Settings: Homo sapiens, RPMI-8226, 24 h, read-out: Cell count (24 h) IC50
Source text: Cytotoxic activity of the Moringa derived isothiocyanate (GMG-ITC) on a panel of human tumor cell lines.

{"COMPOUND": "CC1OC(Oc2ccc(CN=C=S)cc2)C(O)C(O)C1O (stereo not shown) [GMG-ITC]", "IC50": "6 µM"}

----------
test system: HL60; test: Cytotoxic activity, cell count (24 h); type: cell-based; settings: Homo sapiens, HL-60, 24 h, read-out: Cell count (24 h) IC50

{"MOLECULE": "CC1OC(Oc2ccc(CN=C=S)cc2)C(O)C(O)C1O (stereo not shown)", "TESTED TARGET": "HL60", "IC50": "15 µM"}

----------
system: A2780; assay: Cytotoxic activity, cell count (24 h); type: cell-based; settings: Homo sapiens, A2780, 24 h, read-out: Cell count (24 h) IC50
pIC50: −log10 of the molar value.

{"COMPOUND": "CC1OC(Oc2ccc(CN=C=S)cc2)C(O)C(O)C1O (stereo not shown)", "pIC50": 4.82}

----------
system: HCT116 p53−/−; assay: Cytotoxic activity, cell count (24 h); type: cell-based; settings: Homo sapiens, HCT-116; HCT116 p53−/−, 24 h; read-out: Cell count (24 h) IC50

{"MOLECULE": "C[S+]([O-])CCCCN=C=S (stereo not shown) [GRA, sulphorafane, reference compound]", "TESTED TARGET": "HCT116 p53−/−", "IC50 [µM]": 18}

----------
Test system: HL60
Experiment: Cytotoxic activity, cell count (24 h)
Format: cell-based
Details: Homo sapiens, HL-60; HL60, 24 h; read-out: Cell count (24 h) IC50
Excerpt: Cytotoxic activity of the Moringa derived isothiocyanate (GMG-ITC) on a panel of human tumor cell lines.
RESULT TYPE: IC50

{"MOLECULE": "C[S+]([O-])CCCCN=C=S (stereo not shown) [GRA, sulphorafane, reference compound]", "RESULT TYPE": "IC50", "RESULT": "16 µM"}
